- Method: BSK_MyoF_SRB: Viability Assessment in the BioMAP Diversity Plus: MyoF Assay (AID 2284267);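 note: total protein by SRB absorbance in parallel cultures as cytotoxicity measure; cells assessed 24 h after compound addition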
- Experimental Parameters: primary human lung fibroblasts
The source made the active and inactive calls. Rule for the calls: active = hit-call score of the fitted dose curve at least 0.9, where 1 is the maximum; inactive = score below 0.9.
Your response should consist of one outcome taken from active, inactive

Field: example entries. Status: answers known.
Molecule	Class Name
CC(C)c1cccc(C(C)C)c1N	inactive
CC(C)CCCCCOC(=O)CS	inactive

Lookup: Entry "Oc1c(Cl)cc(Cl)c(Cl)c1Cl" : call = ?
Found: active

###

- Method: ACEA_ER_80hr: ACEA Biosciences xCELLigence Real-Time Cell Analysis on Estrogen Receptor Agonism for Proliferation (AID 2282667)
- Experimental Parameters: T47D proliferation, impedance (xCELLigence), 80 h
Inconclusive results are not listed. Active and inactive are the calls of the source. Rule for the calls: active = hit-call score of the fitted dose curve at least 0.9, where 1 is the maximum; inconclusive = response in the unintended direction; inactive = score below 0.9.
Your response should consist of one outcome taken from active, inactive

Field: example entries. Status: answers known.
Compound	Class Name
Nc1ccnc(=O)[nH]1	inactive
C=Cc1cccc(C)c1	inactive
C=C(C)C(=O)OCCCCCCCCCCCC	inactive
O=C1CCCCCCCCCCC1	inactive
CCOC(=O)c1ccccc1C	inactive

Lookup: Entry CC(CC=O)CC(C)(C)C (centres undefined) : call = ?
Found: inactive

Lookup: Entry "O=C(O)c1cc(O)c2ccccc2c1O" : call = ?
Found: inactive

Lookup: Entry "COc1ccc(C(=O)/C(Br)=C\C(=O)O)cc1" : call = ?
Found: inactive

Lookup: Entry "CC(C)CCCCCOC(=O)CS" : call = ?
Found: inactive

Lookup: Entry CC(=O)OC1CCCCC1C(C)(C)C (centres undefined) : call = ?
Found: inactive

Lookup: Entry "CC(C)=CCCC(C)=CC#N" : call = ?
Found: inactive

Lookup: Entry "NNS(=O)(=O)c1ccc(Oc2ccc(S(=O)(=O)NN)cc2)cc1" : call = ?
Found: inactive

Lookup: Entry "C=CC(=O)NCOCCCC" : call = ?
Found: inactive

Lookup: Entry "CC(c1cc(C(C)(C)C)cc(C(C)(C)C)c1O)c1cc(C(C)(C)C)cc(C(C)(C)C)c1O" : call = ?
Found: inactive

Lookup: Entry "Cc1c(C(=O)c2c[nH]n(C)c2=O)ccc(S(C)(=O)=O)c1C1=NOCC1" : call = ?
Found: inactive

Lookup: Entry "CC(CCC(=O)O)(c1ccc(O)cc1)c1ccc(O)cc1" : call = ?
Found: active

Lookup: Entry "C=CC(=O)NC(C)(C)C" : call = ?
Found: inactive

Lookup: Entry "Clc1cc(Cl)c(Cl)c(Cl)c1Cl" : call = ?
Found: inactive

Lookup: Entry "CC(=O)OCc1ccccc1" : call = ?
Found: inactive

###

- Assayed System: X-box-binding protein 1 (Homo sapiens)
- Method: ATG_Xbp1_CIS: Attagene CIS-FACTORIAL HepG2 Assay for human X-box Binding Protein 1 (XBP1) (AID 2282972)
- Experimental Parameters: HepG2 XBP1 cis-element reporter, Attagene multiplex; actives raise or lower the signal
The source made the active and inactive calls. How the source made its calls: active means hit-call score of the fitted dose curve at least 0.9, where 1 is the maximum; inactive means score below 0.9.
Your response should consist of one outcome taken from active, inactive

Lookup: Entry "CCCCc1ccc(Cl)cc1" : call = ?
Found: inactive

Lookup: Entry "Cc1ccc(S(=O)(=O)N=C=O)cc1" : call = ?
Found: inactive

Lookup: Entry "CCCCCCCC(=O)OCC(COC(=O)CCCCCCC)OC(=O)CCCCCCC" : call = ?
Found: inactive

###

The following compounds are shown together with reported AC50 values.
- Test system: DIO2 (gene 1734)
- Method: CCTE_GLTED_hDIO2: CCTE's human Deiodinase 2 (DIO2) Inhibition Assay, Great Lakes Toxicology and Ecology Division (GLTED) Lab (AID 2284050)
Active and inactive are the calls of the source. How the source made its calls: active means hit-call score of the fitted dose curve at least 0.9, where 1 is the maximum; inconclusive means response in the unintended direction; inactive means score below 0.9.

Smiles Notation	Test Result
CCCCCCCCCCCCCCCCCCOS(=O)(=O)O	40.6 µM (active)
CCCCCCCCCCCCc1ccc(O)cc1	69.7 µM (active)
CCCCCCCOC(=O)c1ccc(O)cc1	106 µM (active)

Lookup: Please report the recorded AC50 for "CCCCC/C=C\C/C=C\CCCCCCCC(=O)O" .
Found: 36.8 µM (active)

###

- Method: ATG_RORE_CIS: Attagene CIS-FACTORIAL HepG2 Assay for human RAR-related Orphan Receptor Element (RORE) (AID 2282959)
- Experimental Parameters: HepG2 Attagene cis-factorial RORE reporter, mRNA; actives raise or lower the signal
Calls of active or inactive are those of the source. The calls were made as follows: active = hit-call score of the fitted dose curve at least 0.9, where 1 is the maximum; inactive = score below 0.9.
Your response should consist of one outcome taken from active, inactive

Field: example entries. Status: answers known.
Compound	Class Name
CC(C)(CO)C(O)C(=O)NCCCO (configuration not stated)	inactive
C[Si]1(C)O[Si](C)(C)O[Si](C)(C)O[Si](C)(C)O[Si](C)(C)O1	inactive
COCC(=O)O	inactive
COC(=O)c1ccccc1C	inactive
CC/C=C\C/C=C\C/C=C\CCCCCCCC(=O)OC	active

Lookup: Entry "Cc1cccc(C(C)(C)C)c1O" : call = ?
Found: inactive

Lookup: Entry "C=CC(=O)OCCCCCCCC(C)C" : call = ?
Found: active

###

- Read-out: Interleukin-1 alpha (IL1a), IL1A (gene 3552)
- Method: BSK_KF3CT_IL1a: BioMAP Diversity Plus: KF3CT Assay for Interleukin-1 alpha (IL1a) Biomarker Activity (AID 2283070)
- Experimental Parameters: primary human keratinocytes with fibroblasts; actives raise or lower the signal
Activity calls are given as the source filed them. Rule for the calls: active = hit-call score of the fitted dose curve at least 0.9, where 1 is the maximum; inactive = score below 0.9.
Readout Kind: AC50

Study these solved cases before continuing.
Smiles Notation	AC50
CC=C(C)C=CC=C(C)C	16 nM (active)
COC(OC)(C(=O)c1ccccc1)c1ccccc1	inactive
CC(C)CCCCCOC(=O)CS	inactive
O=C(Oc1ccccc1)c1ccccc1C(=O)Oc1ccccc1	inactive
CCOC(=O)/C=C\C(=O)OCC	inactive

Continue with the next compound.
Lookup: Please report the recorded AC50 for "Oc1ccccc1Cc1ccccc1O" .
Found: inactive

###

- Assayed System: Nuclear receptor subfamily 1 group I member 2 (Homo sapiens)
- Method: NVS_NR_hPXR: NovaScreen (NVS) Nuclear Receptor Binding Assay for human Pregnane X Receptor (PXR) (AID 2283365);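 note: a drop in FRET signal versus DMSO baseline means the compound binds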
Records with an inconclusive call do not appear. Active and inactive are the calls of the source. Rule for the calls: active = hit-call score of the fitted dose curve at least 0.9, where 1 is the maximum; inconclusive = response in the unintended direction; inactive = score below 0.9.
Your response should consist of one outcome taken from yes (1) for active, no (0) for inactive

Field: example entries. Status: answers known.
Compound	Class Name
N#Cc1ccc(C2CCCc3cncn32)cc1 (stereo unspecified)	no (0)
O=c1c(O)c(-c2ccc(O)cc2O)oc2cc(O)cc(O)c12	yes (1)
Cc1ccc([N+](=O)[O-])cc1N	no (0)
CC(CCC(=O)O)(c1ccc(O)cc1)c1ccc(O)cc1	no (0)
CCCCc1ccc(Cl)cc1	no (0)
COc1ccc(-c2coc3cc(O)cc(O)c3c2=O)cc1	no (0)
O=C(O)c1cc(O)c2ccccc2c1O	yes (1)
CCCCNS(=O)(=O)c1ccccc1	no (0)

Lookup: Entry "CCCCCCOc1ccc(N)cc1" : call = ?
Found: no (0)

Lookup: Entry "CCCCC/C=C\C/C=C\CCCCCCCC(=O)O" : call = ?
Found: yes (1)

###

- Method: ATG_PPRE_CIS: Attagene CIS-FACTORIAL HepG2 Assay for human Peroxisome Proliferator-activated Response Element (PPRE) (AID 2282958)
- Experimental Parameters: HepG2 PPRE cis-element reporter, Attagene transcription factor profiling; actives raise or lower the signal
The source made the active and inactive calls. How the source made its calls: active means hit-call score of the fitted dose curve at least 0.9, where 1 is the maximum; inactive means score below 0.9.
Your response should consist of one outcome taken from Yes = active, No = inactive

Field: example entries. Status: answers known.
Molecule	Class Name
CCCCCC1=CCCC1=O	No
CCCCC(C=O)CC (stereo not given)	No
COC(C=C(C)CCC=C(C)C)OC	No
CCCCCCCCCC[N+](C)(CCCCCCCCCC)CCC[Si](OC)(OC)OC	Yes
CC(C)(CO)C(O)C(=O)NCCCO (stereo not given)	No
O=C1c2ccccc2C(=O)c2cc(S(=O)(=O)O)ccc21	No
CC(=O)c1ccc(S(=O)(=O)NC(=O)NC2CCCCC2)cc1	No
N=C1C=CC(=C(c2ccc(N)cc2)c2ccc(N)cc2)C=C1	No

Lookup: Entry "COC(OC)(C(=O)c1ccccc1)c1ccccc1" : call = ?
Found: No

Lookup: Entry "CCCCCCCCCCCC(C)=O" : call = ?
Found: Yes

Lookup: Entry "Nc1ccc(C(=O)O)cc1" : call = ?
Found: No

Lookup: Entry "c1ccc(Nc2cccc3ccccc23)cc1" : call = ?
Found: No

Lookup: Entry "Nc1ccnc(=O)[nH]1" : call = ?
Found: No

Lookup: Entry "Cc1cc(=O)[nH]c(=O)[nH]1" : call = ?
Found: No

###

- Method: ATG_CMV_CIS: Attagene CIS-FACTORIAL HepG2 Assay for human CMV (Internal Marker) (AID 2282928);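 note: endpoint acts as a background internal control marker rather than a target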
- Experimental Parameters: HepG2 CMV promoter reporter, transcription factor profiling; actives raise or lower the signal
The source made the active and inactive calls. Rule for the calls: active = hit-call score of the fitted dose curve at least 0.9, where 1 is the maximum; inactive = score below 0.9.
Your response should consist of one outcome taken from yes (1) for active, no (0) for inactive

Field: example entries. Status: answers known.
Compound	Class Name
CN(C)c1ccc2nc3ccc(=[N+](C)C)cc-3sc2c1	yes (1)
CC(C)(C)N	no (0)

Lookup: Entry CCCCC(CC)COC(=O)/C=C/c1ccc(OC)cc1 (stereo not given) : call = ?
Found: no (0)

Lookup: Entry CC1=CCC(C(C)C)C=C1 (stereo not given) : call = ?
Found: no (0)

Lookup: Entry "CC(C)CC(=O)OCc1ccccc1" : call = ?
Found: no (0)

Lookup: Entry "CN1CCN(C)CC1" : call = ?
Found: no (0)

Lookup: Entry CCC(C)(O)CCCC(C)C (stereo not given) : call = ?
Found: no (0)

Lookup: Entry "CC(C)(CO)COC(=O)C(C)(C)CO" : call = ?
Found: no (0)

Lookup: Entry "CCCCOCCOC(=O)COc1ccc(Cl)cc1Cl" : call = ?
Found: no (0)

Lookup: Entry "O=C1CCCCCCCCCCC1" : call = ?
Found: no (0)

Lookup: Entry C=CC(C)(CCC=C(C)C)OC(=O)C=Cc1ccccc1 (stereo not given) : call = ?
Found: yes (1)
